Test system: mouse leukemia L1210 culture cells
procedure.summary: inhibition of propagation (50% growth inhibiting concentration) of mouse leukemia L1210 culture cells
Assay type: cell-based
measurement.context: L1210 cells, RPMI 1640 with 20% calf serum, 37° C., 48 hours, read-out: 50% Inhibiting Concentration (IC50) Cell Growth Inhibition

compound: CCC1(O)CC(OC2CC(N)C(OC3CC(O)C(O)C(C)O3)C(C)O2)c2c(O)c3c(c(O)c2C1C(=O)OC)C(=O)c1cccc(O)c1C3=O (stereo not shown) [CG17B]
units.text: µg/mL
IC50: 1.4

compound: CCC1(O)CC(OC2CC(N)C(OC3CCC(O)C(C)O3)C(C)O2)c2c(O)c3c(c(O)c2C1C(=O)OC)C(=O)c1cccc(O)c1C3=O (stereo not shown) [CG17A]
units.text: µg/mL
IC50: 0.5

compound: CCC1(O)CC(OC2CC(N)C(OC3CCC(O)C(C)O3)C(C)O2)c2c(O)c3c(c(O)c2C1O)C(=O)c1cccc(O)c1C3=O (stereo not shown) [CG15A]
units.text: µg/mL
IC50: 0.002

compound: CCC1(O)CC(OC2CC(N)C(OC3CCC(O)C(C)O3)C(C)O2)c2c(O)c3c(c(O)c2C1C(=O)OC)C(=O)c1cccc(OC)c1C3=O (stereo not shown) [CG19A]
units.text: µg/mL
IC50: 1

Values were extracted from patent US4918172A.
